Experiment: Pharmacokinetics in plasma and tumor, HCT116 tumor-bearing mice
Format: in vivo, nude mice
Details: nude, mouse, tumor, iv, 10 mg/kg, multiple i.v. 10 mg/kg; read-out: MRT in tumor
property label: MRT (h)
Number only, in h; omit the unit.

Task: Tell us which MRT value is on record for CN(Cc1nc2c(N3CCOCC3)nc(-c3ccc(N)cc3)nc2n1C)c1ncc(C(=O)NO)cn1.CS(=O)(=O)O [PM]
Result: 34.7

###

Test: Metabolic stability in liver microsomes
Type: in vitro ADME
Details: CD-1, mouse, 1 µM, NADPH, 37°C
property label: half-life at 1 µM

Task: Name the recorded half-life at 1 µM of the item `CN(Cc1nc2c(N3CCOCC3)nc(-c3ccc(N)cc3)nc2n1C)c1ncc(C(=O)NO)cn1.CS(=O)(=O)O` in your answer.
Result: > 186 min

###

Test: Pharmacokinetics, intravenous
Assay type: in vivo, SD rats
Settings: both sexes, SD, rat, plasma, iv; 3 mg/kg single i.v.
Description: After a single intravenous injection of Purinostat Mesylate at doses of 1, 3, and 10 mg/kg, the average initial concentrations (C0) in male and female SD rats were 736 ± 66.5, 2880 ± 566, and 11500 ± 1790 ng/mL, respectively. […] The half-lives (T1/2) were 3.79 ± 0.511, 4.21 ± 0.248, and 6.24 ± 1.57 min, respectively. The area under the curve (AUC0-last) values were 55.3 ± 3.68, 248 ± 36.1, and 1280 ± 122 ng.h/mL, respectively. […]
property label: C0 (ng/mL)
Field format: number, assumed ng/mL, no unit text.

Task: Tell me C0 reported for `CN(Cc1nc2c(N3CCOCC3)nc(-c3ccc(N)cc3)nc2n1C)c1ncc(C(=O)NO)cn1.CS(=O)(=O)O`
Result: 2880

###

Test: Pharmacokinetics, intravenous
Assay type: in vivo, SD rats
Conditions: both sexes, SD, rat, plasma, iv, 3 mg/kg, 3 mg/kg daily i.v. for 7 days; read-out: AUC0-last on day 7
Protocol: After a single intravenous injection of Purinostat Mesylate at doses of 1, 3, and 10 mg/kg, the average initial concentrations (C0) in male and female SD rats were 736 ± 66.5, 2880 ± 566, and 11500 ± 1790 ng/mL, respectively. […] The half-lives (T1/2) were 3.79 ± 0.511, 4.21 ± 0.248, and 6.24 ± 1.57 min, respectively. The area under the curve (AUC0-last) values were 55.3 ± 3.68, 248 ± 36.1, and 1280 ± 122 ng.h/mL, respectively. […]
property label: AUC(0-t) (ng·h/mL)
Your answer is read as ng·h/mL, so omit the unit and give the number.

Task: Input `CN(Cc1nc2c(N3CCOCC3)nc(-c3ccc(N)cc3)nc2n1C)c1ncc(C(=O)NO)cn1.CS(=O)(=O)O` , output reported AUC(0-t).
Result: 332

###

Assay: Metabolic stability in liver microsomes
Format: in vitro ADME
Conditions: Beagle, dog, read-out: liver intrinsic clearance (CLint)
property label: CLint scaled at 1 µM

Task: Identify CLint scaled at 1 µM associated with the compound CN(Cc1nc2c(N3CCOCC3)nc(-c3ccc(N)cc3)nc2n1C)c1ncc(C(=O)NO)cn1.CS(=O)(=O)O [PM]
Result: 20.4 mL/min/kg

###

Biological target: CYP2C8 (Homo sapiens)
Sequence (P10632 whole entry): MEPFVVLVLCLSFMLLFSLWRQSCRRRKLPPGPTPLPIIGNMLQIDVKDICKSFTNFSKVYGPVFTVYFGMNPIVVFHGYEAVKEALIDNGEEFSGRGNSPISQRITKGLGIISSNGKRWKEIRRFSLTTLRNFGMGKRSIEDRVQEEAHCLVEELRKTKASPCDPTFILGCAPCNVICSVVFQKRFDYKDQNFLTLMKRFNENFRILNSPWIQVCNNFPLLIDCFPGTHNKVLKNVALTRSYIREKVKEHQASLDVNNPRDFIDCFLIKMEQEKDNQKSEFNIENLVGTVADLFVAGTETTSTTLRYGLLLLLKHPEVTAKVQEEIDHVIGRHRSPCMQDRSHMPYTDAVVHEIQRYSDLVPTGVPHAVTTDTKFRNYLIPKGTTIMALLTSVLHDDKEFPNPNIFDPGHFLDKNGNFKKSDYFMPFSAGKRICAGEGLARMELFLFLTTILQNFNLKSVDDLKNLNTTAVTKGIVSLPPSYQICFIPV
pIC50: −log10 of the molar value.
property label: pIC50

Task: Give the value of pIC50 reported for the following: CN(Cc1nc2c(N3CCOCC3)nc(-c3ccc(N)cc3)nc2n1C)c1ncc(C(=O)NO)cn1.CS(=O)(=O)O [PM]
Result: < 5.00

###

Assay: Pharmacokinetics and tissue distribution in Ighmyc mice
Format: in vivo
Conditions: Ighmyc (Eμ-myc), mouse, lymph nodes, iv; single i.v. 5 mg/kg; read-out: MRT in lymph nodes
property label: MRT (h)
Quick reminder: number only, in h, skip the unit.

Task: Please give the documented MRT of `CN(Cc1nc2c(N3CCOCC3)nc(-c3ccc(N)cc3)nc2n1C)c1ncc(C(=O)NO)cn1.CS(=O)(=O)O`
Result: 23.4

###

Test: Acute toxicity test, intravenous
Assay type: in vivo, Beagle dogs
Details: beagle, dog, in vivo, iv; single i.v.; read-out: maximum tolerated dose (MTD)
property label: MTD (mg/kg)
Numbers only here, please. The scale is mg/kg.

Task: For CN(Cc1nc2c(N3CCOCC3)nc(-c3ccc(N)cc3)nc2n1C)c1ncc(C(=O)NO)cn1.CS(=O)(=O)O [PM] , write its MTD.
Result: 10

###

Experiment: Metabolic stability in liver microsomes
Format: in vitro ADME
Conditions: human, read-out: liver intrinsic clearance (CLint)
property label: CLint scaled at 1 µM

Task: Entry `CN(Cc1nc2c(N3CCOCC3)nc(-c3ccc(N)cc3)nc2n1C)c1ncc(C(=O)NO)cn1.CS(=O)(=O)O` needs its CLint scaled at 1 µM filled in; supply it.
Result: < 6.8 mL/min/kg

###

Molecular target: CYP2C19 (Homo sapiens, UniProt P33261)
Construct: human liver microsomal cytochrome P450 isoenzymes; from tissue; host or cells: human liver microsomes
Sequence (P33261 whole entry): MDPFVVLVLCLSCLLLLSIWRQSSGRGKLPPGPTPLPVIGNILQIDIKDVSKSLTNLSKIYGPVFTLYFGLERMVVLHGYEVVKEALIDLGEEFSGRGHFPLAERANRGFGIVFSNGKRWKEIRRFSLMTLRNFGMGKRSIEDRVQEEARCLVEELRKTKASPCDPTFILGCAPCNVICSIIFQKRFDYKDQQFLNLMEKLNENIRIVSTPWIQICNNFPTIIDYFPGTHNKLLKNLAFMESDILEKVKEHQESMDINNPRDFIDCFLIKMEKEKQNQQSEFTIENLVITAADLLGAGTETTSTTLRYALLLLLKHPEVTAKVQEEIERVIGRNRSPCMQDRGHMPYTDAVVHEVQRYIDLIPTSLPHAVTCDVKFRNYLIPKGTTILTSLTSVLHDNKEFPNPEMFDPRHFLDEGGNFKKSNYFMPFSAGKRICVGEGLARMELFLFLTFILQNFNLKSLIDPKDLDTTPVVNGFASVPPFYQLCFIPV
Assay: CYP inhibition, human liver microsomes
Format: in vitro ADME
pIC50: −log10 of the molar value.
property label: pIC50

Task: Enter recorded pIC50 with CYP2C19 (Homo sapiens, UniProt P33261) for `CN(Cc1nc2c(N3CCOCC3)nc(-c3ccc(N)cc3)nc2n1C)c1ncc(C(=O)NO)cn1.CS(=O)(=O)O` here.
Result: < 5.00

###

Target: UniProtKB Q9UKV0
Sequence (Q9UKV0 whole entry): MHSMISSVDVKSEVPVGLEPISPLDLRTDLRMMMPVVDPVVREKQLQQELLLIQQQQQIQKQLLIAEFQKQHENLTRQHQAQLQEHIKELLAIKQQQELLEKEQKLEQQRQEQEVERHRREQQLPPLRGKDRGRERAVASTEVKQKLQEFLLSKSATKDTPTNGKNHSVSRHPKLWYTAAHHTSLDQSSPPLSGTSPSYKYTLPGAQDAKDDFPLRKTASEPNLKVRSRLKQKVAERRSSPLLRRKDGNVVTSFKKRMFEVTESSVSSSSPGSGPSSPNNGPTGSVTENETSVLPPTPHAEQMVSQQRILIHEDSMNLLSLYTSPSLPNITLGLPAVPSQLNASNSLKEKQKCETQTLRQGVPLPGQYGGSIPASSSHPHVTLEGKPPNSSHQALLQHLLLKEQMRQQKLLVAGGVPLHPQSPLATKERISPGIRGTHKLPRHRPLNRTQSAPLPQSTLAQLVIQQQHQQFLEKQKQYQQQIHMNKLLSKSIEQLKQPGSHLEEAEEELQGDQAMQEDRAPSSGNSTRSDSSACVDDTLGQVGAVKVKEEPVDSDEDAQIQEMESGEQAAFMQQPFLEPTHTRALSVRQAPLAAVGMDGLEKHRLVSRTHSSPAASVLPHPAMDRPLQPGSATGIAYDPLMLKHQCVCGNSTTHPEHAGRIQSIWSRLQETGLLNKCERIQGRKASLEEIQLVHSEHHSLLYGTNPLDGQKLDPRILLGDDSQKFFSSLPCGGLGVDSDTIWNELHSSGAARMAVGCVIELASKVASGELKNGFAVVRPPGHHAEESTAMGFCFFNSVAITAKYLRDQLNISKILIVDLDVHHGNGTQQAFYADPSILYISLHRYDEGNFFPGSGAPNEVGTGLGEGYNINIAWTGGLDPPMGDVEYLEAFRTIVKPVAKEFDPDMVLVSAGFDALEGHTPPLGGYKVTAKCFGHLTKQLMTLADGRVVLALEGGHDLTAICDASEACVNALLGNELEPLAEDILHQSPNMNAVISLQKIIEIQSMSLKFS
property label: pIC50
Value format note: pIC50 is -log10 of concentration (mol/L); just state the number.

Task: Check the records and state pIC50 for `CN(Cc1nc2c(N3CCOCC3)nc(-c3ccc(N)cc3)nc2n1C)c1ncc(C(=O)NO)cn1.CS(=O)(=O)O`
Result: 6.21

###

Experiment: Pharmacokinetics in plasma and tumor, HCT116 tumor-bearing mice
Assay type: in vivo, nude mice
Conditions: nude, mouse, plasma, iv; single i.v. 10 mg/kg; read-out: plasma AUC(0-8h)
property label: AUC(0-t)
Provide a numeric answer, followed by its unit.

Task: Hello, please tell me recorded AUC(0-t) for this one: `CN(Cc1nc2c(N3CCOCC3)nc(-c3ccc(N)cc3)nc2n1C)c1ncc(C(=O)NO)cn1.CS(=O)(=O)O`
Result: 174 ng·h/mL

###

Assay: Pharmacokinetics, intravenous
Assay type: in vivo, Beagle dogs
Conditions: both sexes, Beagle, dog, plasma, 1 mg/kg single i.v.
property label: Cmax
Show the value, then the unit it is measured in.

Task: Tell us which Cmax value is on record for `CN(Cc1nc2c(N3CCOCC3)nc(-c3ccc(N)cc3)nc2n1C)c1ncc(C(=O)NO)cn1.CS(=O)(=O)O`
Result: 411 ng/mL

###

Test: Metabolite profiling in plasma, bile, urine, feces
Assay type: in vivo, SD rats
Conditions: female rats, [14C] 3 mg/100 µCi/kg i.v.
Description: Following a single intravenous administration of [14C] Purinostat Mesylate at a dose of 3 mg/100 µCi/kg in male and female rats, a total of 14 metabolites were identified, in addition to the parent compound. These were designated as M382, M396, M474, M475, M490, M516, M517, M532, M546, M548, M558, M666, M708a, and M708b. […]
property label: share of plasma AUC0-96h

CN(Cc1nc2c(N3CCOCC3)nc(-c3ccc(N)cc3)nc2n1C)c1ncc(C(=O)NO)cn1.CS(=O)(=O)O; 11.15%
CN(Cc1nc2c(N3CCOCC3)nc(-c3ccc(N)cc3)nc2n1C)c1ncc(C(N)=O)cn1; 13.75%
CC(=O)Nc1ccc(-c2nc(N3CCOCC3)c3nc(CN(C)c4ncc(C(N)=O)cn4)n(C)c3n2)cc1; 15.61%

Task: Return reported share of plasma AUC0-96h. Input molecule: `CONC(=O)c1cnc(N(C)Cc2nc3c(N4CCOCC4)nc(-c4ccc(NC(C)=O)cc4)nc3n2C)nc1`
Result: 4.71% to 9.05

Task: Give a short answer stating reported share of plasma AUC0-96h for `CC(=O)Nc1ccc(-c2nc(N3CCOCC3)c3nc(CN(C)c4ncc(C(=O)NO)cn4)n(C)c3n2)cc1` .
Result: 4.71% to 9.05

Task: For the molecule `CN(Cc1nc2c(N3CCOCC3)nc(-c3ccc(N)cc3)nc2n1C)c1ncc(C(=O)O)cn1` , report share of plasma AUC0-96h.
Result: 4.71% to 9.05

###

Assay: Pharmacokinetics and tissue distribution in Ighmyc mice
Type: in vivo
Conditions: Ighmyc (Eμ-myc), mouse, lymph nodes, iv; single i.v. 5 mg/kg; read-out: concentration in lymph nodes at 48 hours
property label: concentration at 48 h (ng/mL)
Could you give me the number in ng/mL? Just the number is fine.

Task: Given the molecule CN(Cc1nc2c(N3CCOCC3)nc(-c3ccc(N)cc3)nc2n1C)c1ncc(C(=O)NO)cn1.CS(=O)(=O)O [PM] , write its reported concentration at 48 h.
Result: 178
